Cited source for all entries: patent US5348960A

Below, each of the compounds is paired with its reported IC50 value.
# Test system: ADP-induced aggregation of human blood platelets
# Test: cells
# Assay type: cell-based
# Test context: Platelet, read-out: IC50 vs ADP in human PRP
Where a name gives a salt, the structure may show the parent alone.

Compound: Oc1nc2cc3cc(OCCCc4nnnn4C4CCN(CCc5ccccc5)CC4)ccc3[nH]c-2n1 [Cmpd 12g, dihydrochloride]
IC50 [µg/mL]: 0.048
--
Compound: CC(C)CN1CCC(n2nnnc2CCCCOc2ccc3nc4[nH]c(=O)[nH]c4cc3c2)CC1 [Cmpd 13f, dihydrochloride]
IC50 [µg/mL]: 0.005
--
Compound: Oc1nc2cc3cc(OCCCCc4nnnn4C4CCN(CC5CCCCC5)CC4)ccc3[nH]c-2n1 [Cmpd 13d, dihydrochloride]
IC50 [µg/mL]: 0.012
--
Compound: Oc1nc2cc3cc(OCCCCc4nnnn4C4CCNCC4)ccc3[nH]c-2n1 [Cmpd 13a, dihydrochloride]
IC50 [µg/mL]: 2.6
--
Compound: Oc1nc2cc3cc(OCCCCc4nnnn4C4CCN(Cc5ccccc5)CC4)ccc3[nH]c-2n1 [Cmpd 13b, dihydrochloride]
IC50 [µg/mL]: 0.018
--
Compound: CCOC(=O)N1CCC(n2nnnc2CCCOc2ccc3nc4[nH]c(=O)[nH]c4cc3c2)CC1 [Cmpd 10a]
IC50 [µg/mL]: 0.2
--
Compound: Oc1nc2cc3cc(OCCCc4nnnn4C4CCN(CC5CCCCO5)CC4)ccc3[nH]c-2n1 (stereo not drawn) [Cmpd 12k, dihydrochloride]
IC50 [µg/mL]: 0.04
--
Compound: Cl.Cl.O=c1[nH]c2cc3cc(OCCCc4nnnn4C4CCN(CC5CCCC5)CC4)ccc3nc2[nH]1 [Cmpd 12h]
IC50 [µg/mL]: 0.005
--
Compound: Oc1nc2cc3cc(OCCCc4nnnn4C4CCN(Cc5ccc(F)cc5)CC4)ccc3[nH]c-2n1 [Cmpd 12c, dihydrochloride]
IC50 [µg/mL]: 0.019
--
Compound: Oc1nc2cc3cc(OCCCc4nnnn4C4CCNCC4)ccc3[nH]c-2n1 [Cmpd 12a, dihydrochloride]
IC50 [µg/mL]: 5.4
--
Compound: Oc1nc2cc3cc(OCCCc4nnnn4C4CCN(CC5CCCCC5)CC4)ccc3[nH]c-2n1 [Cmpd 12d, dihydrochloride]
IC50 [µg/mL]: 0.009
--
Compound: CCC(CC)CN1CCC(n2nnnc2CCCOc2ccc3nc4[nH]c(=O)[nH]c4cc3c2)CC1 [Cmpd 12e, dihydrochloride]
IC50 [µg/mL]: 0.007
--
Compound: Cl.Cl.O=c1[nH]c2cc3cc(OCCCc4nnnn4C4CCN(CC5CCCCCC5)CC4)ccc3nc2[nH]1 [Cmpd 12i]
IC50 [µg/mL]: 0.01
--
Compound: Oc1nc2cc3cc(OCCCCc4nnnn4C4CCN(Cc5ccc(F)cc5)CC4)ccc3[nH]c-2n1 [Cmpd 13c, dihydrochloride]
IC50 [µg/mL]: 0.031
--
Compound: CC(C)CN1CCC(n2nnnc2CCCOc2ccc3nc4[nH]c(=O)[nH]c4cc3c2)CC1 [Cmpd 12f, dihydrochloride]
IC50 [µg/mL]: 0.005
